The measurements presented in this section are drawn from ChEMBL document CHEMBL3045057.

Molecular target: UniProt:P18031
Sequence (P18031 whole entry): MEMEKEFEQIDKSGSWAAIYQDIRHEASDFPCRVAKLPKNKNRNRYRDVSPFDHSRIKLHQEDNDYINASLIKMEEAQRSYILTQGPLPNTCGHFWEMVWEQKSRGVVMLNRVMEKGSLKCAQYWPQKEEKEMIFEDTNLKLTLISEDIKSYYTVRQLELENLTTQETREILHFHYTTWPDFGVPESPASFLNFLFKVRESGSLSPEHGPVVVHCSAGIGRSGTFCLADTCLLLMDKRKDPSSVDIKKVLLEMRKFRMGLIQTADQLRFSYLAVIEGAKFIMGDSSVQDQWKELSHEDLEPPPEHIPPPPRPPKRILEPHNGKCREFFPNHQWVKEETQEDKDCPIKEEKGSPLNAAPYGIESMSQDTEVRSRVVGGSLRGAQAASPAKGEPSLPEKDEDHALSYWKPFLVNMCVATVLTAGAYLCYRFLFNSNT
Assay: Inhibition of PTP1B (unknown origin)
Details: read-out: IC50
Collected IC50 values appear next to each entry.
Write down the value, and be sure its unit follows.

MOLECULE | IC50
CC1(C)CC[C@]2(C(=O)O)CC[C@]3(C)C(=CC[C@@H]4[C@@]5(C)CC[C@H](Cc6ccccc6)C(C)(C)[C@@H]5CC[C@]43C)[C@@H]2C1 | 2.67 µM
CC1(C)CC[C@]2(C(=O)O)CC[C@]3(C)C(=CC[C@@H]4[C@@]5(C)CC[C@H](Cc6ccccc6C(=O)O)C(C)(C)[C@@H]5CC[C@]43C)[C@@H]2C1 | 2.72 µM

Please look at the following molecule next.
// query IC50 value for entry COc1cccc(CC(NC(=O)C[C@]23CCC(C)(C)C[C@H]2C2=CC[C@@H]4[C@@]5(C)CC[C@H](O)C(C)(C)[C@@H]5CC[C@@]4(C)[C@]2(C)CC3)C(=O)O)c1 (stereo partly drawn)
0.52 µM
